# Tm by Differential Scanning Calorimetry (DSC) per entry
Assay: Thermal stability of CD58 variants by differential scanning calorimetry (DSC)
Assay type: physicochemical
Conditions: HBS, 0.5 mg/mL
ENDPOINT LABEL: Tm by Differential Scanning Calorimetry (DSC) (°C)

[[record]]
molecule = "CD58 Full ECD: recombinant human CD58 full extracellular domain (protein) SQQIYGVVYGNVTFHVPSNVPLKEVLWKKQKDKVAELENSEFRAFSSFKNRVYLDTVSGSLTIYNLTSSDEDEYEMESPNITDTMKFFLYVLESLPSPTLTCALTNGSIEVQCMIPEHYNSHRGLIMYSWDCPMEQCKRNSTSIYFKMENDLPQKIQCTLSNPLFNTTSSIILTTCIPSSGHSRHRGGGGSHHHHHHHH"
measured_result = 65.0

[[record]]
molecule = "IgV V54C_G88C: CD58 IgV domain with V54 and G88 replaced by cysteines (stabilizing disulfide) (protein) SQQIYGVVYGNVTFHVPSNVPLKECLWKKQKDKVAELENSEFRAFSSFKNRVYLDTVSCSLTIYNLTSSDEDEYEMESPNITDTMKFFLYVLESGGGGSHHHHHHHH"
measured_result = 80.9

[[record]]
molecule = "IgV V45C_M105C: CD58 IgV domain with V45 and M105 replaced by cysteines (stabilizing disulfide) (protein) SQQIYGVVYGNVTFHCPSNVPLKEVLWKKQKDKVAELENSEFRAFSSFKNRVYLDTVSGSLTIYNLTSSDEDEYECESPNITDTMKFFLYVLESGGGGSHHHHHHHH"
measured_result = 66.8

[[record]]
molecule = "CD58_IgV: recombinant human CD58 IgV domain (domain 1), no added disulfide (protein) SQQIYGVVYGNVTFHVPSNVPLKEVLWKKQKDKVAELENSEFRAFSSFKNRVYLDTVSGSLTIYNLTSSDEDEYEMESPNITDTMKFFLYVLESGGGGSHHHHHHHH"
measured_result = 60.9

